Test: Aqueous solubility of avanafil by HPLC at a range of pH values
Format: physicochemical
Conditions: phosphate buffer, aqueous buffer, thermodynamic from solid; Solution 7, 0.1M KH2PO4, pH 7.00
Text: A high performance liquid chromatography (HPLC) procedure was used to evaluate the aqueous solubility of avanafil (obtained from Tanabe Seiyaku Co., LTD, purity, 97.0% to 103% with an observed purity of 98.89%; particle diameter, 10-20 microns with median observed particle diameter of 18.47 microns) at a range of pH values. […]

>  <COMPOUND>
COc1ccc(CNc2nc(N3CCC[C@H]3CO)ncc2C(=O)NCc2ncccn2)cc1Cl [avanafil]

>  <solubility, µg/mL>
0.233

$$$$

Numbers sourced from patent US10028916B2.
